tested.on: CYP2C19 (Homo sapiens)
Sequence (P33261 whole entry): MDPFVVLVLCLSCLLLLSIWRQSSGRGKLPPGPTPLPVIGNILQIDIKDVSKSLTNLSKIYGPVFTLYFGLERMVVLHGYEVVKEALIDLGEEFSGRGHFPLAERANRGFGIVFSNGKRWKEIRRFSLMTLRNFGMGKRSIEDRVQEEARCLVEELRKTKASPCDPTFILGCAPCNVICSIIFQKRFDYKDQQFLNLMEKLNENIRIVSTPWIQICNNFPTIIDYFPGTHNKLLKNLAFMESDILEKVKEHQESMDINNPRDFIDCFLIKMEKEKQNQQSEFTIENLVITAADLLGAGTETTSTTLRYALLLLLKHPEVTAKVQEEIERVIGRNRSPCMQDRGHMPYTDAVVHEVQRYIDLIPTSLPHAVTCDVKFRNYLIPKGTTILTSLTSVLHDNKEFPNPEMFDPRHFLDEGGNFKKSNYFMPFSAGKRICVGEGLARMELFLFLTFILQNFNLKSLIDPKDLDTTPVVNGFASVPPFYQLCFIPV
procedure.text: Inhibition of CYP2C19 in human liver microsomes using mephenytoin as substrate at 10 uM
Assay type: ADME
test.parameters: probe mephenytoin
experimental.readout: inhibition at 10 µM (%)
Answer with a number only, understood to be in %.

| structure.smiles | inhibition at 10 µM, % |
| --- | --- |
| Cc1ccc(Nc2cc(C(=O)N3Cc4ccccc4C3)c(O)cc2O)cc1 | 58 |
| O=C(c1cc(-n2ccc3c([N+](=O)[O-])cccc32)c(O)cc1O)N1Cc2ccccc2C1 | 89 |

Here's the next entry for you.
Q: // lookup inhibition at 10 µM for O=C(c1cc(-n2ccc3c(Br)cccc32)c(O)cc1O)N1Cc2ccccc2C1
Ans: 70

====

tested.on: CYP2D6 (Homo sapiens, UniProt P10635)
Sequence (P10635 whole entry): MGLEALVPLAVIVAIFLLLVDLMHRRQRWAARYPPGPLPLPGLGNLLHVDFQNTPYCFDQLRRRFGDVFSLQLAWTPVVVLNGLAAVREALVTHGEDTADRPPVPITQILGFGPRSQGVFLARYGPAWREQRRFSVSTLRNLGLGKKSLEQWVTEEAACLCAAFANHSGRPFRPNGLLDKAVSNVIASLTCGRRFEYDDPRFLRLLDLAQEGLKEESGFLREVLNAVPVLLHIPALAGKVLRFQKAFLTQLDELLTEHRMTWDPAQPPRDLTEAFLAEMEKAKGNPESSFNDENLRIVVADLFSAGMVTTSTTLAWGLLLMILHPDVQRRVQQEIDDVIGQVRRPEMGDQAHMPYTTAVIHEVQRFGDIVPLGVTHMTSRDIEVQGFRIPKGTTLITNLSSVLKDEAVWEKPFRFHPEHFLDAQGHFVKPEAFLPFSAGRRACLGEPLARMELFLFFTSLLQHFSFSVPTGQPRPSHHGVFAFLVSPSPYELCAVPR
procedure.text: Inhibition of CYP2D6 in human liver microsomes using dextromethorphan as substrate at 10 uM
Type: ADME
test.parameters: probe dextromethorphan
Classify as follows. Reported inhibition at 10 µM greater than or equal to 10%: true (1). Reported inhibition at 10 µM below: false (0).

| structure.smiles | tested.on | discrete.label |
| --- | --- | --- |
| O=C(c1cc(-n2ccc3c([N+](=O)[O-])cccc32)c(O)cc1O)N1Cc2ccccc2C1 | CYP2D6 (Homo sapiens, UniProt P10635) | true (1) |
| O=C(c1cc(-n2ccc3c(Br)cccc32)c(O)cc1O)N1Cc2ccccc2C1 | CYP2D6 (Homo sapiens, UniProt P10635) | true (1) |
| Cc1ccc2c(ccn2-c2cc(C(=O)N3Cc4ccccc4C3)c(O)cc2O)c1 | CYP2D6 (Homo sapiens, UniProt P10635) | false (0) |

Q: For this compound, is measured inhibition at 10 µM 10% or higher? O=C(c1cc(-n2ccc3ccccc32)c(O)cc1O)N1Cc2ccccc2C1
Ans: true (1)

Q: Dear colleague, could you confirm whether O=C(c1cc(Nc2ccccc2)c(O)cc1O)N1Cc2ccccc2C1 has inhibition at 10 µM at or above 10%?
Ans: true (1)

Q: Confirm if inhibition at 10 µM reported for the compound Cc1ccc(Nc2cc(C(=O)N3Cc4ccccc4C3)c(O)cc2O)cc1 is 10% or above.
Ans: false (0)

Q: Check this compound for inhibition at 10 µM at or above 10%: O=C(c1cc(Nc2ccc(Cl)cc2Cl)c(O)cc1O)N1Cc2ccccc2C1
Ans: false (0)

Q: Form field: inhibition at 10 µM at least 10%? Entry: O=C(c1cc(-n2ccc3cc(Br)ccc32)c(O)cc1O)N1Cc2ccccc2C1
Ans: true (1)

====

procedure.text: Retention time of the compound
Assay type: physicochemical
experimental.readout: Retention_time

Q: // Retention_time lookup, key: Cc1ccc(Nc2cc(C(=O)N3Cc4ccccc4C3)c(O)cc2O)cc1
Ans: 3.29 min

Q: Please look up its Retention_time: O=C(O)Cc1cn(-c2cc(C(=O)N3Cc4ccccc4C3)c(O)cc2O)c2ccccc12
Ans: 2.97 min

====

tested.on: CYP2C9 (Homo sapiens)
Sequence (P11712 whole entry): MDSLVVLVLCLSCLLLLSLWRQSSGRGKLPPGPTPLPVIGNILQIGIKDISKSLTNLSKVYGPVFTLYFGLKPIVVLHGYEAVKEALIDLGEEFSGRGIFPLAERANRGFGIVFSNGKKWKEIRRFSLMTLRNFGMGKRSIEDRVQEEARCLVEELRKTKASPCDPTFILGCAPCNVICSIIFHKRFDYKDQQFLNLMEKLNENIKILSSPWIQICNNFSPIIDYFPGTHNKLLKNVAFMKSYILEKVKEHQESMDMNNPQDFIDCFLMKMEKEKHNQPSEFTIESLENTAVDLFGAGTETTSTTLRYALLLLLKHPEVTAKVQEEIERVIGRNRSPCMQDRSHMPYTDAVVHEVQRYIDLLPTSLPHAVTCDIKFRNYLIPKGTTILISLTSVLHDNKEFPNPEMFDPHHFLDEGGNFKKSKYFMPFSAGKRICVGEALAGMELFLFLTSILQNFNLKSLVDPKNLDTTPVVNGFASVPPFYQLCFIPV
procedure.text: Inhibition of CYP2C9 in human liver microsomes using diclofenac as substrate at 10 uM
Format: ADME
test.parameters: probe diclofenac
experimental.readout: inhibition at 10 µM (%)
Note: unit % is implicit; provide only the numeric part.

| structure.smiles | tested.on | inhibition at 10 µM, % |
| --- | --- | --- |
| O=C(c1cc(-n2ccc3c(Br)cccc32)c(O)cc1O)N1Cc2ccccc2C1 | CYP2C9 (Homo sapiens) | 54 |
| O=C(c1cc(Nc2ccccc2)c(O)cc1O)N1Cc2ccccc2C1 | CYP2C9 (Homo sapiens) | 68 |
| O=C(c1cc(-n2ccc3c([N+](=O)[O-])cccc32)c(O)cc1O)N1Cc2ccccc2C1 | CYP2C9 (Homo sapiens) | 74 |
| Cc1ccc(Nc2cc(C(=O)N3Cc4ccccc4C3)c(O)cc2O)cc1 | CYP2C9 (Homo sapiens) | 75 |
| O=C(c1cc(Nc2ccc(Cl)cc2Cl)c(O)cc1O)N1Cc2ccccc2C1 | CYP2C9 (Homo sapiens) | 73 |

Q: Which inhibition at 10 µM value belongs to O=C(c1cc(-n2ccc3cc(Br)ccc32)c(O)cc1O)N1Cc2ccccc2C1 ?
Ans: 78

Q: Reported inhibition at 10 µM for O=C(c1cc(-n2ccc3ccccc32)c(O)cc1O)N1Cc2ccccc2C1 : what is it?
Ans: 73

Q: Fill blank: measured inhibition at 10 µM of the compound Cc1ccc2c(ccn2-c2cc(C(=O)N3Cc4ccccc4C3)c(O)cc2O)c1 is ____.
Ans: 68
